Target: Adrenergic β2 (Homo sapiens)
Construct: Adherent H292 cells were removed from tissue culture flasks; endogenous in cells; host or cells: H292 cells
Sequence (P07550 whole entry): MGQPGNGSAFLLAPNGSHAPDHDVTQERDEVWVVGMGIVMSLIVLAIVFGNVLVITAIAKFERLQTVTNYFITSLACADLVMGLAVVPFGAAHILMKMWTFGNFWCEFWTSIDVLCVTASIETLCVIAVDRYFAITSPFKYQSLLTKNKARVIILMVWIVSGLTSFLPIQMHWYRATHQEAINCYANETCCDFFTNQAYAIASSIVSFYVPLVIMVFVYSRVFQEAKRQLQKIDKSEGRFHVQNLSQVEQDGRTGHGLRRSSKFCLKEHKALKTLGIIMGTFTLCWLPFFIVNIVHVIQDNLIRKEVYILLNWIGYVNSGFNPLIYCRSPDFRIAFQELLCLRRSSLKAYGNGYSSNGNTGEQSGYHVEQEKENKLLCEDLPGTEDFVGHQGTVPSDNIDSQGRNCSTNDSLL
Test: Adrenergic β2 mediated cAMP production in H292 cells (AlphaScreen cAMP detection)
Type: cell-based
Conditions: cAMP production, 60 min at room temperature, 300 μM rolipram, read-out: β2 pEC50 (converted)
Structures can show the parent of a compound that is named as a salt.
measure-name: EC50 (nM)
Give bare numbers, in nM.

>>> print(df.to_string())
                                   compound  unit_descriptor  test_result
0  CCC[C@@H](C)N(CCNCCc1ccc(O)c2c1OCC(=O)N2)C(=O)CCOCCc1cccc(-c2cnn(C(C)C)c2)c1 [Example 21, Trifluoroacetic Acid Salt]               nM         12.6

Provide EC50 for all items below, preserving their order.
1. Cn1cc(-c2cc(CCOCCC(=O)N(CCNCCc3ccc(O)c4c3OCC(=O)N4)C3CCCCC3)ccc2F)cn1 [Example 13, Trifluoroacetic Acid Salt]
2. Cn1cc(-c2cc(F)cc(CCOCCC(=O)N(CCNCCc3ccc(O)c4c3OCC(=O)N4)C3CCCCC3)c2)cn1 [Example 17, Trifluoroacetic Acid Salt]
3. CCn1cc(-c2cccc(CCOCCC(=O)N(CCNCCc3ccc(O)c4c3OCC(=O)N4)[C@H](C)C(C)(C)C)c2)cn1 [Example 25, Trifluoroacetic Acid Salt]
4. CCCn1cc(-c2cccc(CCOCCC(=O)N(CCNCCc3ccc(O)c4c3OCC(=O)N4)C3CCCC3)c2)cn1 [Example 18, Trifluoroacetic Acid Salt]
5. CCn1cc(-c2cccc(CCOCCC(=O)N(CCNCCc3ccc(O)c4c3OCC(=O)N4)C3CCCC3)c2)cn1 [Example 24, Trifluoroacetic Acid Salt]
6. CCn1cc(-c2cccc(CCOCCC(=O)N(CCNCCc3ccc(O)c4c3OCC(=O)N4)[C@H](C)C(C)C)c2)cn1 [Example 23, Trifluoroacetic Acid Salt]

[10, 7.94, 12.6, 10, 7.94, 6.31]

For the compound shown here, CC(C)[C@@H](C)N(CCNCCc1ccc(O)c2c1OCC(=O)N2)C(=O)CCOCCc1cccc(-c2cnn(C(C)C)c2)c1 [Example 20, Trifluoroacetic Acid Salt] , give the reported EC50.
10

---

Answer each item with its documented IC50.
Molecular target: recombinant human Dopamine Subtype D2s receptors (Homo sapiens)
Construct: purchased Perkin Elmer
Sequence (P14416 1-414 isoform P14416-2): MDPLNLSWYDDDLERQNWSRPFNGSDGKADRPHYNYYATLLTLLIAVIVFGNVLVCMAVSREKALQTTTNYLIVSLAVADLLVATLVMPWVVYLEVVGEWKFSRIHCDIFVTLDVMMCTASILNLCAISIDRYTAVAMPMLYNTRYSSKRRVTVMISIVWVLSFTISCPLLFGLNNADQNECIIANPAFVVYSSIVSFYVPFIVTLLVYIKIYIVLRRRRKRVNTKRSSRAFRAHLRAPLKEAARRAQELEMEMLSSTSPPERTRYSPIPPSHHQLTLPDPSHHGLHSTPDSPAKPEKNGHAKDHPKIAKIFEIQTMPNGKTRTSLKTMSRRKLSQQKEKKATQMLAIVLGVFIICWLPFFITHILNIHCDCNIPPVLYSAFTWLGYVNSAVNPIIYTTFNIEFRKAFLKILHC
Test: Dopamine D2 selectivity binding assay ([3H]-spiperone)
Conditions: inhibition of [3H]-spiperone binding, human D2s membranes; read-out: D2 bind pIC50 (converted)
Where a name gives a salt, the structure may show the parent alone.
One number for each entry, in µM.

Example entries and their recorded answers appear below.
In [3]: df
Out[3]:
                                   compound                              study_system  measure_name  unit_descriptor  test_result
0  C[C@@H](N(CCNCCc1ccc(O)c2c1OCC(=O)N2)C(=O)CCOCCc1cccc(-c2cnn(C)c2)c1)C(C)(C)C [Example 26, Trifluoroacetic Acid Salt]  recombinant human Dopamine Subtype D2s receptors (Homo sapiens)          IC50               µM         2.51
1  O=C1COc2c(CCNCCN(C(=O)CCOCCc3cccc(-c4c[nH]nn4)c3)C3CCCCC3)ccc(O)c2N1 [Example 14, Trifluoroacetic Acid Salt]  recombinant human Dopamine Subtype D2s receptors (Homo sapiens)          IC50               µM         2.51
2  O=C1COc2c(CCNCCN(C(=O)CCOCCc3cccc(-c4cnn(CC5CC5)c4)c3)C3CCCC3)ccc(O)c2N1 [Example 19, Trifluoroacetic Acid Salt]  recombinant human Dopamine Subtype D2s receptors (Homo sapiens)          IC50               µM         2.51
3  CCn1ccnc1-c1cccc(CCOCCC(=O)N(CCNCCc2ccc(O)c3c2OCC(=O)N3)C2CCCCC2)c1 [Example 29, Trifluoroacetic Acid Salt]  recombinant human Dopamine Subtype D2s receptors (Homo sapiens)          IC50               µM            2
4  Cn1cc(-c2cc(CCOCCC(=O)N(CCNCCc3ccc(O)c4c3OCC(=O)N4)C3CCCCC3)ccc2F)cn1 [Example 13, Trifluoroacetic Acid Salt]  recombinant human Dopamine Subtype D2s receptors (Homo sapiens)          IC50               µM         3.16
5  CCC[C@@H](C)N(CCNCCc1ccc(O)c2c1OCC(=O)N2)C(=O)CCOCCc1cccc(-c2cnn(C(C)C)c2)c1 [Example 21, Trifluoroacetic Acid Salt]  recombinant human Dopamine Subtype D2s receptors (Homo sapiens)          IC50               µM         3.16
6  O=C1COc2c(CCNCCN(C(=O)CCOCCc3cccc(-c4cnco4)c3)C3CCCCC3)ccc(O)c2N1 [Example 10, Trifluoroacetic Acid Salt]  recombinant human Dopamine Subtype D2s receptors (Homo sapiens)          IC50               µM            1
7  CCn1cc(-c2cccc(CCOCCC(=O)N(CCNCCc3ccc(O)c4c3OCC(=O)N4)[C@H](C)C(C)(C)C)c2)cn1 [Example 25, Trifluoroacetic Acid Salt]  recombinant human Dopamine Subtype D2s receptors (Homo sapiens)          IC50               µM         3.98
8  Cn1cc(-c2cccc(CCOCCC(=O)N(CCNCCc3ccc(O)c4c3OCC(=O)N4)C3CCCCC3)c2)nn1 [Example 05, Trifluoroacetic Acid Salt]  recombinant human Dopamine Subtype D2s receptors (Homo sapiens)          IC50               µM         3.16
9  Cn1cc(-c2cccc(CCOCCC(=O)N(CCNCCc3ccc(O)c4c3OCC(=O)N4)C3CCCCCC3)c2)nn1 [Example 06, Trifluoroacetic Acid Salt]  recombinant human Dopamine Subtype D2s receptors (Homo sapiens)          IC50               µM            2

// each compound listed below needs its IC50
1. Cc1c(-c2cccc(CCOCCC(=O)N(CCNCCc3ccc(O)c4c3OCC(=O)N4)C3CCCCC3)c2)cnn1C [Example 37, Trifluoroacetic Acid Salt]
2. CC(C)n1cc(-c2cccc(CCOCCC(=O)N(CCNCCc3ccc(O)c4c3OCC(=O)N4)C3CCCC3)c2)cn1 [Example 22, Trifluoroacetic Acid Salt]

1. 1.58
2. 2.51
